B1: Lysozyme C, P61626 (parent)
chain: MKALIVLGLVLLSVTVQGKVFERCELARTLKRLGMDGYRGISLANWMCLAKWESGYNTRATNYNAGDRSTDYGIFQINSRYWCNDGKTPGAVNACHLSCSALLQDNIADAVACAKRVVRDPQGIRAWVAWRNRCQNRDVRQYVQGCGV

Variants of: B1
Details: Homo sapiens; pH 2.7; Thermal; DSC; glycine 0.05 M; reversible: yes; structure 1LZ1; whole UniProt chain shown
Measured Parameter: heat capacity change of unfolding (kcal/mol/K)

- Changes: "I41V"
  Measured Parameter: "heat capacity change of unfolding"
  Value Observed: 1.39
- Changes: "I107V"
  Measured Parameter: "heat capacity change of unfolding"
  Value Observed: 1.91
- Changes: "I74V"
  Measured Parameter: "heat capacity change of unfolding"
  Value Observed: 1.34
- Changes: "I77V"
  Measured Parameter: "heat capacity change of unfolding"
  Value Observed: 1.2
- Changes: "I124V"
  Measured Parameter: "heat capacity change of unfolding"
  Value Observed: 1.41
